system: SNB-19 CNS; test: NCI tumour cell line growth inhibition, 48 h
property-measured: TGI

Here is how some molecules turned out for TGI.
Cc1cc(Cl)nc2nc(Cl)c(N)cc12 :: 9.57 µM
C[C@]12CCC(=O)C(OC(=O)c3ccc([N+](=O)[O-])cc3)=C1CCC2=O :: > 100 µM

Continue with the molecule presented below.
Ask | Determine its reported TGI: `O=C(O)[C@H](Cc1c[nH]c2ccccc12)N1C(=O)c2ccccc2C1=O`
Reply | > 100 µM

###

Here the recorded TGI is given for each entry.
tested on: NCI-H522 lung; test: NCI tumour cell line growth inhibition, 48 h

// below: answered compounds
C=C1C(=O)O[C@H]2[C@H]1CC/C(COC(=O)NCc1c[nH]c3ccccc13)=C\CC[C@@]1(C)O[C@@H]21 :: 2580 nM
CC(C)N1CCN(c2ccncc2S(=O)(=O)N2CCCCC2)CC1 :: > 100000 nM
CN(C)CCN1C(=O)c2cccc3cc([N+](=O)[O-])cc(c23)C1=O :: 2120 nM

Turning now to a further compound:
Ask | State recorded TGI with NCI-H522 lung, entry CC(CC(=O)N1C(=O)C(C)(C)[C@@H](O)[C@H]1CC(C)C(Cl)(Cl)Cl)C(Cl)(Cl)Cl (some centres undefined) , no comment.
Reply | > 100000 nM

###

# TGI per entry
system: SNB-19 CNS; assay: NCI tumour cell line growth inhibition, 48 h

Worked examples, 3 compounds total:
CCOC(=O)C(=O)C=P(c1ccccc1)(c1ccccc1)c1ccccc1 :: > 100 µM
NC(=NCc1ccccc1)C(N=Nc1ccccc1)C(=O)NCc1ccccc1 (stereo not drawn) :: 31.5 µM
COC(=O)C1CCC(=O)N1C(c1cc(OC)c(OC)c(OC)c1)c1cc(OC)c(OC)c(OC)c1 (stereo not drawn) :: > 100 µM

Ask | Using known records, supply TGI for `O=C(CCl)NCCNc1nccc(Nc2ccc(S(=O)(=O)Nc3ccccn3)cc2)n1`
Reply | 7.56 µM

Ask | Complete the entry with TGI for `CCCCOC(=O)c1ccc(N)cc1`
Reply | > 100 µM

Ask | In one line, give reported TGI of the entry CCOC(=O)CC(c1ccccc1)C(C)(C(=O)OCC)C(=O)OCC (stereo not drawn) .
Reply | > 100 µM

Ask | Fill in reported TGI for this entry: `COC(OC)c1cc2c(cc1C=O)OCO2`
Reply | > 100 µM

Ask | Query TGI for `C=CCN1/C(=C(\C#N)c2nc3ccccc3[nH]2)Sc2c1nc[nH]c2=O`
Reply | > 100 µM

###

Item-by-item account of TGI
system: SK-MEL-5 melanoma; experiment: NCI tumour cell line growth inhibition, 48 h

Solved entries (count: 8):
O=c1c2ccccc2[nH]n1Cc1ccccc1 :: > 100 µM
Cc1c2ccn(O)cc2c(C)c2c1nc1ccccc12 :: > 100 µM
CSC1NC(c2ccccc2)=C(C#N)C(=O)N1C1OCC(OC(C)=O)C(OC(C)=O)C1OC(C)=O (stereo not given) :: > 100 µM
Nc1ccc2[nH]c(-c3cccc(C(F)(F)F)c3)cc(=O)c2c1 :: > 100 µM
COc1c(C)cc2c(C(C)C)c(O)c(O)c(C=O)c2c1O :: 33.1 µM
CC(=O)c1[nH]c(NC(C)C)c(C(=S)Nc2ccccc2)c1N :: 42.2 µM
COc1ccc(C2=NN(c3ccccc3)C[N+](c3ccc(C)cc3)=N2)cc1 :: > 10 µM
N/N=C1\C(=O)N(Cc2ccccc2)C(=O)C1C(=O)NCc1ccccc1 (stereo not given) :: > 100 µM

Ask | Supply TGI value. Item: `COc1cc(Oc2c(C)c(Cl)c(OC)c(Cl)c2OC)c2c(c1Cl)COC2=O`
Reply | 49.2 µM

Ask | For the compound `CCCCOC(=O)c1ccc(N)cc1` , report TGI.
Reply | > 100 µM

###

test system: HOP-92 NSCLC; assay: NCI tumour cell line growth inhibition, 48 h
property-measured: TGI

CCCNC(=S)N/N=C(\C)c1ccc(S(=O)(=O)N(C)c2ccccc2)cc1 :: > 100 µM
CCCCCCCCCCCC(=O)OC[C@H](C[As](=O)(O)O)OC(=O)CCCCCCCCCCC :: 3.85 µM
CO[C@@H]1C=C[C@@]23c4cc5c(cc4CN(C[C@@H]2O)[C@H]3C1)OCO5 :: 80.6 µM
COc1nc2cccc(C(O)c3ccccc3)c2nc1-c1ccccc1 (stereo not given) :: 31.8 µM
NCCSc1cc(O)c2c(c1N)C(=O)c1ccccc1C2=O :: > 100 µM

Ask | Complete the entry with TGI for `NC(N)=NS(=O)(=O)c1ccc(N/N=C2/CCOC2=O)cc1`
Reply | > 100 µM

Ask | Answer with reported TGI of `O=S(=O)([O-])c1ccc(N=Cc2ccccc2[O-])cc1.O=S(=O)([O-])c1ccc(N=Cc2ccccc2[O-])cc1.[Co+2]`
Reply | > 100 µM

Ask | Give the value of TGI reported for the following: `CC(=O)O[C@H]([C@H](OC(C)=O)[C@H](C)OC(C)=O)[C@@H](/C=C/[C@@H]1CC=CC(=O)O1)OC(C)=O`
Reply | 61.7 µM

Ask | Indicate its recorded TGI; the compound in question is `O=[N+]([O-])C(/C=C(\Cl)[N+](=O)[O-])=C1Nc2ccccc2N1`
Reply | 87 µM

Ask | Indicate the recorded TGI value for this compound: `Cn1c(=O)c(Oc2ccc(F)cc2F)cc2cnc(NC(C)(C)CO)nc21`
Reply | > 25 µM

Ask | Provide TGI value for the following compound: CC(CC(N)C(=O)O)C(=O)O (stereo not given)
Reply | > 100 µM

Ask | Answer with the recorded TGI of `Clc1cccc(-c2sc(-c3ccsc3)cc2Cc2ccsc2)c1` only.
Reply | > 10 µM

Ask | Assign TGI to the following record: `c1ccc(-c2nc3ccccc3nc2SCc2cccnc2)cc1`
Reply | > 100 µM

Ask | Give reported TGI value for COC(=O)N1CC(=O)C(C(=O)NC23CC4CC(CC(C4)C2)C3)C1 (stereo not given)
Reply | > 100 µM

Ask | Give the value of TGI reported for the following: `COc1cc(/C=C(\NC(=O)c2ccccc2)c2nc3ccc4c(c3[nH]2)C(=O)c2ccccc2C4=O)cc(OC)c1OC`
Reply | > 100 µM

Ask | Answer with the recorded TGI for the compound listed here: CC(O)C1(CNc2cc(Cl)nc(N)n2)CCCCC1 (stereo not given)
Reply | > 100 µM

Ask | Read the entry CCCCN1CCCC[C@@H]1C(=O)N[C@H](C(=O)N(C)[C@H](C[C@@H](OC(C)=O)c1nc(C(=O)NC2CCC(C(=O)OC)CC2)cs1)C(C)C)C(C)C (stereo not given in full) and write its reported TGI.
Reply | > 25 µM

###

tested on: SR leukemia; experiment: NCI tumour cell line growth inhibition, 48 h; in the data active = GI50 below about 0.43 µM; inactive = the rest
Your reply should match one of these outcome classes. active, inactive

CN(C)c1ccc(/C=C/c2ccc(S(N)(=O)=O)cc2)cc1 :: inactive

Ask | Look up the recorded call for COC(=O)C1=C(O)[C@H](C(=O)OC)C2(O)C(C(=O)OC)[C@H](c3ccc(OC(=O)C(C)c4ccccc4)cc3)C[C@@H]1[C@@H]2C(=O)OC (stereo not given in full) in this test.
Reply | inactive

Ask | Test call for this compound, please: `CC/C=C\C[C@H](F)C/C=C1/C(=O)C=C[C@@H]1C/C=C\CCCC(=O)OC`
Reply | inactive

Ask | For this compound, state the assay outcome: O=C(CC1(O)C(=O)N(Cc2ccccc2)c2ccc(Cl)cc21)c1ccc(C(=O)NCC2CCC3(CC2)OOC2(CCCCC2)OO3)cc1 (stereo not given)
Reply | active

Ask | Check the results log: what was the call for `CCOC(=O)/C=C(\C(=O)OCC)n1ccc(=O)n(Cc2cnnn2CCCCOC(C)=O)c1=O` ?
Reply | inactive

###

test system: HCT-15 colon; assay: NCI tumour cell line growth inhibition, 48 h
property-measured: TGI

OC1c2ccccc2CCC1CN1CCN(CCOC(c2ccc(F)cc2)c2ccc(F)cc2)CC1 (stereo not given) :: 23.4 µM
CC(=O)Nc1cc2cc(N)ccc2oc1=O :: > 100 µM
CO[C@@H]1C=C[C@@]23c4cc5c(cc4CN(C[C@@H]2O)[C@H]3C1)OCO5 :: > 100 µM

Ask | Quote TGI reported for `CCOC(=O)c1nc2ccc(C(F)(F)F)cc2nc1Nc1cc(OC)c(OC)c(OC)c1` please.
Reply | > 100 µM

Ask | Tell me its TGI given `Cc1nc(SCC(=O)Nc2ccc(Cl)cc2)c2sc(=S)n(-c3ccccc3)c2n1` as the entry.
Reply | > 10 µM

Ask | Indicate its recorded TGI; the compound in question is CCOC(=O)C(NC(=O)c1ccccc1)(Nc1ccc(S(=O)(=O)Nc2ncccn2)cc1)C(F)(F)F (stereo not given)
Reply | > 100 µM

Ask | Dear colleague, please send me the reported TGI for `O=c1c2ccccc2[nH]n1Cc1ccccc1` when you can.
Reply | > 100 µM

Ask | Give recorded TGI. `Cc1nc2c(c(N3CCCc4ccccc43)n1)CCC2`
Reply | > 100 µM
